For each of the compounds below, state its inhibition at 100 µM.
experimental-system: acetylcholinesterase (Homo sapiens)
Construct: The supernatant (lysed RBC's) was stored frozen; from tissue; host or cells: lysed human red blood cells (supernatant of hypotonic lysis)
assay-remarks: Inhibition of acetylcholinesterase (AChE) activity of lysed human red blood cells (Test Method 1)
Assay type: biochemical
applied-conditions: 100 μM; 60 min preincubation
Reply with just the number (in %).

Please look at this compound and report its inhibition at 100 µM: "NP(N)(=O)NC(=O)c1ccc([N+](=O)[O-])o1"
93.1

Please look at this compound and report its inhibition at 100 µM: "NP(N)(=O)NC(=O)c1ccco1"
73

Please look at this compound and report its inhibition at 100 µM: "NP(N)(=O)NC(=O)c1cccc([N+](=O)[O-])c1"
86.6

Please look at this compound and report its inhibition at 100 µM: "NP(N)(=O)NC(=O)c1ccccc1"
37.3

Please look at this compound and report its inhibition at 100 µM: "NP(N)(=O)NC(=O)c1ccccc1F"
82.1

Please look at this compound and report its inhibition at 100 µM: "Cc1ccc(C(=O)NP(N)(N)=O)cc1"
46

Please look at this compound and report its inhibition at 100 µM: "Nc1ccc(C(=O)NP(N)(N)=O)cc1"
32.1

Please look at this compound and report its inhibition at 100 µM: "Nc1ccc(S(=O)(=O)Nc2cccc(C(=O)NP(N)(N)=O)c2)cc1"
88.5

Please look at this compound and report its inhibition at 100 µM: "NP(N)(=O)NC(=O)c1ccc(Cl)cc1"
86.5

Please look at this compound and report its inhibition at 100 µM: NP(N)(=O)NC(=O)c1ccc(F)cc1 [Test Compound 4, N-(diaminophosphinyl)-4-fluorobenzamide]
52.3

Please look at this compound and report its inhibition at 100 µM: "NP(N)(=O)NC(=O)c1ccc([N+](=O)[O-])cc1"
86.9

Please look at this compound and report its inhibition at 100 µM: "NP(N)(=O)NC(=O)c1cccnc1"
70.7

Please look at this compound and report its inhibition at 100 µM: "NP(N)(=O)NC(=O)Cc1ccccc1"
85.2

Please look at this compound and report its inhibition at 100 µM: "Cc1ccccc1C(=O)NP(N)(N)=O"
44.5

Please look at this compound and report its inhibition at 100 µM: "N#Cc1ccc(C(=O)NP(N)(N)=O)cc1"
85.5

Please look at this compound and report its inhibition at 100 µM: "NP(N)(=O)NC(=O)c1cccc(C(F)(F)F)c1"
85.9

Please look at this compound and report its inhibition at 100 µM: "NP(N)(=O)NC(=O)c1cccc(F)c1"
41.3

Please look at this compound and report its inhibition at 100 µM: "CC(C)(C)c1ccc(C(=O)NP(N)(N)=O)cc1"
38.7

Please look at this compound and report its inhibition at 100 µM: "COc1ccc(C(=O)NP(N)(N)=O)cc1"
34.2

Please look at this compound and report its inhibition at 100 µM: "NP(N)(=O)NC(=O)c1ccccc1Cl"
87.3

Please look at this compound and report its inhibition at 100 µM: "CS(=O)(=O)c1ccc(C(=O)NP(N)(N)=O)cc1"
86.4

----------
experimental-system: acetylcholinesterase (Homo sapiens)
Construct: The supernatant (lysed RBC's) was stored frozen; from tissue; host or cells: lysed human red blood cells (supernatant of hypotonic lysis)
assay-remarks: Inhibition of acetylcholinesterase (AChE) activity of lysed human red blood cells (Test Method 1)
Format: biochemical
applied-conditions: 10 μM; 60 min preincubation
test-readout: inhibition at 10 µM (%)
Reply with just the number (in %).

Please look at this compound and report its inhibition at 10 µM: "Cc1ccc(C(=O)NP(N)(N)=O)cc1"
9.6

Please look at this compound and report its inhibition at 10 µM: "NP(N)(=O)NC(=O)c1c(F)cccc1F"
51.1

Please look at this compound and report its inhibition at 10 µM: NP(N)(=O)NC(=O)c1ccc(F)cc1 [Test Compound 4, N-(diaminophosphinyl)-4-fluorobenzamide]
12.4

Please look at this compound and report its inhibition at 10 µM: "NP(N)(=O)NC(=O)c1ccc([N+](=O)[O-])cc1"
64.3

Please look at this compound and report its inhibition at 10 µM: "NP(N)(=O)NC(=O)c1ccccc1Cl"
32.1

Please look at this compound and report its inhibition at 10 µM: "N#Cc1ccc(C(=O)NP(N)(N)=O)cc1"
34.4

Please look at this compound and report its inhibition at 10 µM: "Nc1ccc(C(=O)NP(N)(N)=O)cc1"
1.8

Please look at this compound and report its inhibition at 10 µM: "NP(N)(=O)NC(=O)c1ccccc1"
4.1

Please look at this compound and report its inhibition at 10 µM: "NP(N)(=O)NC(=O)c1cccnc1"
-1.9

Please look at this compound and report its inhibition at 10 µM: "Nc1ccc(S(=O)(=O)Nc2cccc(C(=O)NP(N)(N)=O)c2)cc1"
62.2

----------
For each of the compounds below, state its inhibition at 1 µM.
experimental-system: pseudocholinesterase (Homo sapiens)
Construct: a 100 μl aliquot of human plasma; from tissue; host or cells: human plasma (EDTA blood, stored frozen)
Sequence (P06276 29-602): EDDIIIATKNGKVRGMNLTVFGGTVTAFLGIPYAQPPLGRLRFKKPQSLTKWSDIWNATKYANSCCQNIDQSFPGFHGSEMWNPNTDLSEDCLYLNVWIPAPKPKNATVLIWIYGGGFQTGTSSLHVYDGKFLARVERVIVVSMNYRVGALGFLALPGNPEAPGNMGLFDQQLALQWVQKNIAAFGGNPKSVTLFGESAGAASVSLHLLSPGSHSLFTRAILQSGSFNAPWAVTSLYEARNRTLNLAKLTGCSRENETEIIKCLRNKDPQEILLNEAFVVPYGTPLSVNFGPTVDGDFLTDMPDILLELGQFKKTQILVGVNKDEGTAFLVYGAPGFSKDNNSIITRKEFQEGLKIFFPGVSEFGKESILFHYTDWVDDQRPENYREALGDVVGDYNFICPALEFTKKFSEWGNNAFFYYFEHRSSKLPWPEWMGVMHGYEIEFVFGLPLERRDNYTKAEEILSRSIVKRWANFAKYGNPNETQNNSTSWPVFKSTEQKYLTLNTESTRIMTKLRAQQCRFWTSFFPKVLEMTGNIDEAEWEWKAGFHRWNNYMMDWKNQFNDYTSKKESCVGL
assay-remarks: Inhibition of human plasma pseudocholinesterase (PChE) activity (Test Method 1)
Format: biochemical
applied-conditions: 1 μM; 30 min preincubation
Reply with just the number (in %).

Please look at this compound and report its inhibition at 1 µM: NP(N)(=O)NC(=O)c1cccc([N+](=O)[O-])c1 [Test Compound 7]
65.6

Please look at this compound and report its inhibition at 1 µM: NP(N)(=O)NC(=O)c1cccc(C(F)(F)F)c1 [Test Compound 14]
25

Please look at this compound and report its inhibition at 1 µM: NP(N)(=O)NC(=O)C=Cc1ccccc1 [Test Compound 23]
11.5

Please look at this compound and report its inhibition at 1 µM: NP(N)(=O)NC(=O)c1c(F)cccc1F [Test Compound 21]
74.4

Please look at this compound and report its inhibition at 1 µM: NP(N)(=O)NC(=O)c1cccnc1 [Test Compound 2]
84.1

Please look at this compound and report its inhibition at 1 µM: NP(N)(=O)NC(=O)c1ccccc1Cl [Test Compound 11]
49.5

Please look at this compound and report its inhibition at 1 µM: Cc1ccc(C(=O)NP(N)(N)=O)cc1 [Test Compound 9]
73.7

Please look at this compound and report its inhibition at 1 µM: NP(N)(=O)NC(=O)c1ccccc1 [Test Compound 1]
92.7

Please look at this compound and report its inhibition at 1 µM: Cc1ccccc1C(=O)NP(N)(N)=O [Test Compound 10]
21.4

Please look at this compound and report its inhibition at 1 µM: NP(N)(=O)NC(=O)c1ccc([N+](=O)[O-])o1 [Test Compound 28]
21

Please look at this compound and report its inhibition at 1 µM: NP(N)(=O)NC(=O)Cc1ccccc1 [Test Compound 18]
10.7

Please look at this compound and report its inhibition at 1 µM: Nc1ccc(C(=O)NP(N)(N)=O)cc1 [Test Compound 5]
57.7

Please look at this compound and report its inhibition at 1 µM: NP(N)(=O)NC(=O)c1cccc(F)c1 [Test Compound 13]
80.2

Please look at this compound and report its inhibition at 1 µM: NP(N)(=O)NC(=O)c1cccc(Oc2ccccc2)c1 [Test Compound 19]
63.7

Please look at this compound and report its inhibition at 1 µM: CC(C)(C)c1ccc(C(=O)NP(N)(N)=O)cc1 [Test Compound 16]
46.3

----------
For each of the compounds below, state its inhibition at 10 µM.
experimental-system: acetylcholinesterase (Homo sapiens, UniProt P22303)
Construct: The supernatant (lysed RBC's) was stored frozen; from tissue; host or cells: lysed human red blood cells (supernatant of hypotonic lysis)
Sequence (P22303 other isoform, or with tags, fused parts or gaps): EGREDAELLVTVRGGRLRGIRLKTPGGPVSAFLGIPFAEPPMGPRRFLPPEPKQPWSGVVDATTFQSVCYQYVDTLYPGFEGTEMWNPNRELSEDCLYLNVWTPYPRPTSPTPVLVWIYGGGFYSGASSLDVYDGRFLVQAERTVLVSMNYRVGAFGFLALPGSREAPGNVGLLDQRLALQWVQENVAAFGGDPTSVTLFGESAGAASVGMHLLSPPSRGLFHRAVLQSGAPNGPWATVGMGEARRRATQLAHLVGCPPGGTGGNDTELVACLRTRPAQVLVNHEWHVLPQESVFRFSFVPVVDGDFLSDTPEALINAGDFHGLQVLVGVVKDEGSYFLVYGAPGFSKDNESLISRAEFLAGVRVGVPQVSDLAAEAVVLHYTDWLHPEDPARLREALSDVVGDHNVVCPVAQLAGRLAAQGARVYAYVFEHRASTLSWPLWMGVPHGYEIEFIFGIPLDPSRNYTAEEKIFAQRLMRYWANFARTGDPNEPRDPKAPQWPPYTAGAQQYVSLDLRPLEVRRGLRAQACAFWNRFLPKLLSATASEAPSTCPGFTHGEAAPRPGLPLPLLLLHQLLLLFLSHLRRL
assay-remarks: Inhibition of acetylcholinesterase (AChE) activity of lysed human red blood cells (Test Method 1)
Format: biochemical
applied-conditions: 10 μM; 60 min preincubation
Reply with just the number (in %).

Please look at this compound and report its inhibition at 10 µM: "NP(N)(=O)NC(=O)c1cccc(F)c1"
-4

Please look at this compound and report its inhibition at 10 µM: "NP(N)(=O)NC(=O)c1ccccc1F"
14.7

Please look at this compound and report its inhibition at 10 µM: "NP(N)(=O)NC(=O)c1ccc(Cl)cc1"
5.4

Please look at this compound and report its inhibition at 10 µM: "Cc1ccccc1C(=O)NP(N)(N)=O"
8.6
